// provenance: PubChem BioAssay (NCI)

# Test system: SK-OV-3 ovarian
# assay remarks: NCI tumour cell line growth inhibition, 48 h
property measured: GI50

Sample records with GI50:
- compound: "N#C/C(=C\\c1ccc([N+](=O)[O-])s1)c1nc2cc(Br)ccc2s1"
  GI50: "1.64 µM"
- compound: "O=C(Nc1ccc(O)c(NS(=O)(=O)c2ccc(F)cc2)c1)c1ccc(-c2ccccc2)cc1"
  GI50: "18.8 µM"
- compound: "CC(=O)Nc1ccc(S(=O)(=O)c2ccc(NC(C)=O)cc2)cc1"
  GI50: "> 100 µM"
- compound: "COc1cc(C2C(C(=O)OCc3ccccc3)=C(C)NC(C)=C2C(=O)OCc2ccccc2)cc(OC)c1OC"
  GI50: "4.78 µM"
- compound: "CCC[CH2][Ge]([CH2]CCC)([CH2]CCC)[O]C(=O)C(OC(C)=O)c1ccccc1 (stereo not drawn)"
  GI50: "12.4 µM"
- compound: "CC#CC(=O)N[C@H]1CCCN(c2c(F)cc(C(N)=O)c3[nH]c(C)c(C)c23)C1"
  GI50: "14.4 µM"
- compound: "CN1CCN(CCCOc2ccc3nc(Nc4ccc(C(F)(F)F)c(Cl)c4)ccc3c2)CC1"
  GI50: "1.81 µM"

Note: attention shifts to another entry.
Inquiry: State the recorded GI50 for this entry: CCCC(=O)Nc1ncnc2c1ncn2C1OC2COP(=O)(O)OC2C1OC(=O)CCC (stereo not drawn)
Reply text: > 1000 µM

###

# Tested on: HT29 colon
# assay remarks: NCI tumour cell line growth inhibition, 48 h
property measured: TGI

Sample records with TGI:
- compound: "N#Cc1nc(Nc2ccc(Cl)cc2)sc1N"
  TGI: "> 51.9 µM"
- compound: "COCO[C@@H]1CC2C=Nc3cc(OCc4ccccc4)c(OC)cc3C(=O)N2C1 (some centres not stated)"
  TGI: "> 100 µM"
- compound: "COC(=O)c1cc(NC(=O)CN(CCN(CC(=O)O)CC(=O)Nc2ccc(O)c(C(=O)OC)c2)CC(=O)O)ccc1O"
  TGI: "> 100 µM"
- compound: "COc1cccc(N2C(=O)[C@H]3[C@H]4CC(C(C)(C)C)CC[C@H]4c4c([nH]c5ccccc45)[C@H]3C2=O)c1 (some centres not stated)"
  TGI: "92.1 µM"
- compound: "CCN(CC)c1nc(=O)c(C(=O)C(C)(C)C)c(C(C)(C)C)o1"
  TGI: "> 100 µM"
- compound: "CS(=O)(=O)N(CC(=O)O)Cc1ccccc1"
  TGI: "> 100 µM"
- compound: "CN1CC(S(=O)(=O)c2ccccc2)CC(S(=O)(=O)c2ccccc2)C1c1ccccc1 (configuration not stated)"
  TGI: "29.6 µM"
- compound: "Cc1cccc2c1NC(=O)C2(c1ccc(O)cc1)c1ccc(O)cc1"
  TGI: "46.5 µM"

Inquiry: State the recorded TGI for this entry: "COc1ccc2[nH]cc(CN3CCC(CO)(c4ccccc4)CC3)c2c1"
Reply text: > 100 µM

Inquiry: Now try Cc1cn(CCCCOC(=O)NC(CCCNC(N)=O)C(=O)O)c(=O)[nH]c1=O (configuration not stated) .
Reply text: > 100 µM

Inquiry: Now try "Cc1cn2c(/C=N/N=C(N)N)c(-c3cc(Cl)sc3Cl)nc2s1" .
Reply text: 12.1 µM

Inquiry: Now try "O=C1NCC2(CCNCC2)N1" .
Reply text: > 100 µM

###

# System: BT-549 breast
# assay remarks: NCI tumour cell line growth inhibition, 48 h
We begin with a simple list: items and their reported TGI.

Sample records with TGI:
- molecule: "O=C(Nc1ccc(Cl)cc1F)c1cc(Cl)ccc1O"
  TGI: "2.04 µM"
- molecule: "CNc1ccc(C(=O)CC(O)CCC(C)C2OC(=O)CC(O)CC(=O)CC(O)CC(O)CC(O)CC(O)CC3(O)CC(O)C(C(=O)NCCc4ccccn4)C(CC(OC4OC(C)C(O)C(N)C4O)/C=C/C=C/C=C/C=C\\C=C/C=C/C=C/C2C)O3)cc1 (centres undefined)"
  TGI: "> 50 µM"

Inquiry: Query TGI on BT-549 breast for O=C(Nc1ccc(N2C(=O)CSC2c2cccs2)cc1)c1ccc(N2C(=O)CSC2c2cccs2)cc1 (centres undefined)
Reply text: > 100 µM

Inquiry: Now try "COC(=O)CCSC1=CC(=O)c2nc3ccccc3c3ccnc1c23" .
Reply text: 33 µM

Inquiry: Now try "CCNC(=O)c1ccc2c(c1)nc(-c1ccc(Cl)cc1)n2-c1cc(C(C)(C)C)[nH]n1" .
Reply text: 18.2 µM

Inquiry: Now try "Cc1nc2sc(C(=O)Nc3cccc(Cl)c3C)c(N)c2cc1C(=O)c1ccccc1" .
Reply text: > 13.6 µM

###

# Test system: HCT-116 colon
# assay remarks: NCI tumour cell line growth inhibition, 48 h; in the data active = GI50 below about 0.43 µM; inactive = the rest
Give your call using only these classes: active, inactive

- compound: "O=C(Nc1cccc(-n2cc(-c3ccncc3)c(-c3ccc(O)c(Cl)c3)n2)c1)c1ccc(N2CCOCC2)c(C(F)(F)F)c1"
  discrete label: "inactive"
- compound: "O=C1c2ccccc2CCC1(Br)Br"
  discrete label: "inactive"
- compound: "C[CH2][Sn]([Cl])([CH2]C)[CH2]C"
  discrete label: "inactive"
- compound: "C/C=C1\\C[C@@H]2C(OC)Nc3cc(O)c(OC)cc3C(=O)N2C1 (stereo partly specified)"
  discrete label: "active"
- compound: "C(=C\\c1nc2ccccc2s1)/c1ccc(N2CCOCC2)s1"
  discrete label: "inactive"

Inquiry: Hi, do you know how "COc1ccc2cc(C(=O)/C=C/c3ccco3)ccc2c1" came out in this test?
Reply text: inactive

###

# Tested on: SNB-75 CNS
# assay remarks: NCI tumour cell line growth inhibition, 48 h
property measured: GI50

Inquiry: State the recorded GI50 for this entry: "CC(C)NCCCCCNc1cc(O)cc2cccnc12"
Reply text: > 58.2 µM

Inquiry: Now try "O=C1c2ccccc2CCC1(Br)Br" .
Reply text: 3.23 µM

Inquiry: Now try "C(=C\c1nc2ccccc2s1)/c1ccc(N2CCOCC2)s1" .
Reply text: 31.6 µM

###

# Tested on: SK-MEL-2 melanoma
# assay remarks: NCI tumour cell line growth inhibition, 48 h; in the data active = GI50 below about 0.43 µM; inactive = the rest
Give your call using only these classes: active, inactive

- compound: "COc1ccc(C(=O)c2cc(OC)c(OC)c(OC)c2)cc1/C=C/C(=O)c1ccc2c(c1)OCO2"
  discrete label: "inactive"

Inquiry: Hi, do you know how C/C=C1\C[C@@H]2C(OC)Nc3cc(O)c(OC)cc3C(=O)N2C1 (stereo partly specified) came out in this test?
Reply text: active

Inquiry: Now try "Cc1cn2c(/C=N/N=C(N)N)c(-c3cc(Cl)sc3Cl)nc2s1" .
Reply text: inactive

Inquiry: Now try "C[CH2][Sn]([Cl])([CH2]C)[CH2]C" .
Reply text: inactive

Inquiry: Now try "C(=C\c1nc2ccccc2s1)/c1ccc(N2CCOCC2)s1" .
Reply text: inactive

Inquiry: Now try "Cc1[nH]c2ccccc2c1C1=CC(=O)C=CC1=O" .
Reply text: inactive

###

# System: HOP-92 NSCLC
# assay remarks: NCI tumour cell line growth inhibition, 48 h
property measured: TGI

- compound: "Nc1ccc(-c2nc3ccc(Cc4ccc5nc(-c6ccc(N)cc6)oc5c4)cc3o2)cc1"
  TGI: "> 100 µM"
- compound: "Cc1ccc(C(CC(=O)c2ccccc2)C(C(=O)c2ccccc2)C(c2ccc(C)cc2)C2C(=O)NC(=S)NC2=O)cc1 (stereo unspecified)"
  TGI: "> 50 µM"
- compound: "CN(C)C(=O)C(F)(F)C(c1ccc(C(F)(F)F)cc1)C1C(=O)N(C)C(=O)N(C)C1=O (stereo unspecified)"
  TGI: "> 100 µM"
- compound: "COC1CC(n2ccc(=O)[nH]c2=O)OC1CO (stereo unspecified)"
  TGI: "> 100 µM"
- compound: "CCCC(=O)Nc1ncnc2c1ncn2C1OC2COP(=O)(O)OC2C1OC(=O)CCC (stereo unspecified)"
  TGI: "> 1000 µM"

Note: attention shifts to another entry.
Inquiry: State the recorded TGI for this entry: "O=C1c2ccccc2-n2c1nc1cc(Cl)ccc1c2=O"
Reply text: > 100 µM

###

# System: LOX IMVI melanoma
# assay remarks: NCI tumour cell line growth inhibition, 48 h
property measured: TGI

Sample records with TGI:
- compound: "Cc1cccc2c(N)c3cccc(C(=O)NCCN4CCOCC4)c3nc12"
  TGI: "4.28 µM"
- compound: "COC(=O)C1=C(OC(=O)/C(=C/c2c(F)cccc2F)c2ccccc2)C(C(=O)OC)[C@@]2(O)[C@@H](C(=O)OC)[C@H](C)C[C@@H]1[C@@H]2C(=O)OC (stereo partly drawn)"
  TGI: "> 100 µM"
- compound: "O=C1C2C3CCC(C2C(=O)N1CO)C1C2C(=O)N(CO)C(=O)C2C31 (stereo not drawn)"
  TGI: "> 61.9 µM"
- compound: "O=C(Nc1ccc(N2C(=O)CSC2c2cccs2)cc1)c1ccc(N2C(=O)CSC2c2cccs2)cc1 (stereo not drawn)"
  TGI: "> 100 µM"
- compound: "N#C/C(=C\\c1ccc([N+](=O)[O-])s1)c1nc2cc(Br)ccc2s1"
  TGI: "0.395 µM"

Inquiry: State the recorded TGI for this entry: "COc1ccc2c([nH]c3cc(O)c(C)cc32)c1CC=C(C)C"
Reply text: 7.8 µM

Inquiry: Now try "Cc1cc(O)c(O)c(Oc2cc(C)cc(O)c2O)c1" .
Reply text: 24.6 µM

Inquiry: Now try CC(C)N(C(=O)C12C3C4C5C3C1(C#N)C5C42)C(C)C (stereo not drawn) .
Reply text: > 100 µM

Inquiry: Now try "COc1cc([N+](=O)[O-])c(OC)cc1-c1nc2n(c1/C(N)=N/C(=N)N)CCS2" .
Reply text: > 100 µM

Inquiry: Now try "COc1ccc(NC(=O)CC(=O)n2nc(-c3ccccc3)c(N=Nc3ccccc3C)c2-c2ccccc2)cc1" .
Reply text: > 100 µM

Inquiry: Now try "O=c1cc(-c2ccccc2)nc2cc(-c3ccco3)[nH]n12" .
Reply text: > 100 µM

Inquiry: Now try CCN1C(=O)C(N=[N+]=[N-])(c2ccccc2)C(=O)c2ccccc21 (stereo not drawn) .
Reply text: > 100 µM

Inquiry: Now try "c1ccc(C2=NN[C@H](c3cn(-c4ccccc4)nc3-c3ccccc3)C2)cc1" .
Reply text: > 100 µM
